- Assayed System: J2 IgG heavy chain (HC-TEV-His8) A30P;J2 IgG light chain (Mus musculus;Mus musculus, UniProt ; ;, A30P|)
- Sequence (chain, as listed by the source A30P| | A30P A30P, chain 1 of 2): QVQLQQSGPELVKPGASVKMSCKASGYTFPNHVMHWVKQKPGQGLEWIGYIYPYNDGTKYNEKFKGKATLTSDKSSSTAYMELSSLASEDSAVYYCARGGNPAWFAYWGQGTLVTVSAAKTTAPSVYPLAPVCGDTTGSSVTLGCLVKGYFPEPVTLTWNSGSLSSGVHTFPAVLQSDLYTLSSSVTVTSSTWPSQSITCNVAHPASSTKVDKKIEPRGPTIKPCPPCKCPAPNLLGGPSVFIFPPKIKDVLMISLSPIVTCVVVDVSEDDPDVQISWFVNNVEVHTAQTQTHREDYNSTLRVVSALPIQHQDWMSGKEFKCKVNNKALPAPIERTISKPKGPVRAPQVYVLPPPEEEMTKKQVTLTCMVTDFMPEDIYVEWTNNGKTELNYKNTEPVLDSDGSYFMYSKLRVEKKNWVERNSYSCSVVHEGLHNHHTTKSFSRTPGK
- Sequence (chain, as listed by the source A30P| | A30P A30P, chain 2 of 2): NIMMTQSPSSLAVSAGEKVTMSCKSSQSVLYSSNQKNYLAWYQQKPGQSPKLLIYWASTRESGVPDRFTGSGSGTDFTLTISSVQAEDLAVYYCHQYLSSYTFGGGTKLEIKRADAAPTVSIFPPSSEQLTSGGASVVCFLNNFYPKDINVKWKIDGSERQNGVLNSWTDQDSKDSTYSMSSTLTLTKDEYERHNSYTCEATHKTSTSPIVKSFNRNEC
- Assay Comment: BLI; 100 mM KCl; BLI: 25 mM Tris-HCl pH 7.5, 2 mM MgCl2, KCl 100 mM (6-20 bp and mutants), 200 mM (30 bp) or 400 mM (40, 50 bp), 25 C; IgG immobilised on Protein A probes
- Condition Label: protein: recombinant;recombinant; tags: His8 (C-term);; chain copies: 2;2; blunt
Outcome Measure: Kd

// returns reported Kd for input 20-bp dsRNA (dsRNA) RNA 1: GUUGUAAAGAAGGUCAAUAU RNA 2: AUAUUGACCUUCUUUACAAC
120 nM
